- Assay target: CB1 receptor (Mus musculus)
- Assay: CP55,940-stimulated [35S]GTPγS binding in mouse cerebellar membranes
- Assay type: biochemical
- Measurement parameters: pIC50 ± SEM, CP55,940 10 nM
Endpoint name: IC50 (nM)

* O=C(Nc1ccc(Cl)cc1)Nc1cccc(-c2cccc(N3CCCC3)n2)c1 | 83.2

###

- Assay target: CB1 receptor (Mus musculus)
- Assay: CP55,940-stimulated [35S]GTPγS binding in mouse cerebellar membranes
- Assay type: biochemical
- Measurement parameters: IC50, at 100 nM CP55,940
pIC50: −log10 of the molar value.
Endpoint name: pIC50

• O=C(Nc1ccc(Cl)cc1)Nc1cccc(-c2cccc(N3CCCC3)n2)c1 = 7.31

###

- Assay target: CB1 receptor (Mus musculus, UniProt P47746)
- Sequence (P47746 whole entry): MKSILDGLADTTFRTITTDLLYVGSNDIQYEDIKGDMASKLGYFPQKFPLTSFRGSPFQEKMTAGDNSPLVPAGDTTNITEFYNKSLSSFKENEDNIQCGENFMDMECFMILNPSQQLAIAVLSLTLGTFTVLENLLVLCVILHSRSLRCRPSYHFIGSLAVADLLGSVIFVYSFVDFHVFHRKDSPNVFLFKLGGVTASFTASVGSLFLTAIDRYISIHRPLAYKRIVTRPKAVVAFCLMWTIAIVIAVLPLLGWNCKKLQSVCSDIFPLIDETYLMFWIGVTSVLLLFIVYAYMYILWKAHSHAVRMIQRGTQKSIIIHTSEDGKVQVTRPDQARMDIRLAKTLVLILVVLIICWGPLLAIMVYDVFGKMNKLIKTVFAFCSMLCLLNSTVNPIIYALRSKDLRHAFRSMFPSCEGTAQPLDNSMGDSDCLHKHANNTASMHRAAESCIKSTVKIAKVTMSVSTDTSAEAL
- Assay: CP55,940-stimulated [35S]GTPγS binding in mouse cerebellar membranes
- Assay type: biochemical
- Measurement parameters: pIC50 ± SEM, CP55,940 10 μM
pIC50: −log10 of the molar value.
Endpoint name: pIC50

* O=C(Nc1ccc(Cl)cc1)Nc1cccc(-c2cccc(N3CCCC3)n2)c1 | 7.30

###

- Assay target: CB1 receptor (Mus musculus)
- Assay: [3H]CP55,940 specific binding
Endpoint name: EC50 (nM)

* O=C(Nc1ccc(Cl)cc1)Nc1cccc(-c2cccc(N3CCCC3)n2)c1 [PSNCBAM-1] | 295
